Tested on: rat brain mitochondria
Test: GSH level in brain mitochondria, substances applied alone
Details: 100 µM, vs untreated mitochondria
List of decrease of GSH level in brain mitochondria vs control values.
Numbers only; they are read as %.

[
  {
    "COMPOUND": "CCOC(=O)c1cc(-c2ccc(Br)cc2)n(CCCC(=O)N/N=C/c2ccccc2F)c1C [15c]",
    "NUMERIC_VALUE": 25
  },
  {
    "COMPOUND": "CCOC(=O)c1cc(-c2ccc(Br)cc2)n(CCCC(=O)N/N=C/c2ccc(N(C)C)cc2)c1C [15f]",
    "NUMERIC_VALUE": 15
  },
  {
    "COMPOUND": "CCOC(=O)c1cc(-c2ccc(Br)cc2)n(CCCC(=O)N/N=C/c2ccccc2O)c1C [15b]",
    "NUMERIC_VALUE": 25
  },
  {
    "COMPOUND": "CCOC(=O)c1cc(-c2ccc(Br)cc2)n(CCCC(=O)NN)c1C",
    "NUMERIC_VALUE": 25
  }
]

### Prompt I would be grateful if you could share the reported decrease of GSH level in brain mitochondria vs control for CCOC(=O)c1cc(-c2ccc(Br)cc2)n(CCCC(=O)N/N=C/c2ccccc2)c1C [15a] .
### Response 15

### Prompt Ok, now CCOC(=O)c1cc(-c2ccc(Br)cc2)n(CCCC(=O)N/N=C/c2ccc(OC)cc2)c1C [15e]
### Response 20

### Prompt Ok, now CCOC(=O)c1cc(-c2ccc(Br)cc2)n(CCCC(=O)N/N=C/c2cccc(F)c2)c1C [15d]
### Response 10

### Prompt # iterate: CCOC(=O)c1cc(-c2ccc(Br)cc2)n(CCCC(=O)O)c1C
### Response 15

### Prompt Try this compound next: CCOC(=O)c1cc(-c2ccc(Br)cc2)n(CCCC(=O)N/N=C/c2cccc(C=O)c2)c1C [15g]
### Response 20
